Molecular target: human PD-1 stably expressed on Jurkat/IL-2 reporter cells (Jurkat/PD-1 cells) (human, UniProt Q15116 25-288)
Sequence (Q15116 25-288): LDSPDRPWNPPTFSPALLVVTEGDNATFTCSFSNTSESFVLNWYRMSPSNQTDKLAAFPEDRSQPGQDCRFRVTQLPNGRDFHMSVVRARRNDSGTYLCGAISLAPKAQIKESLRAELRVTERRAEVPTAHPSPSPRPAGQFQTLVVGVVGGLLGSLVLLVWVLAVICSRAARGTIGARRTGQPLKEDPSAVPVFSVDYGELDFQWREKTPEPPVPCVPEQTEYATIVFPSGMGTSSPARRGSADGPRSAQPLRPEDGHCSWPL
Test: flow cytometry, Jurkat/PD-1 cells
measure_name: MFI at 20 nM conc. (MFI)
Express your answer in MFI, writing the number without its unit.

variant PD-L1 ECD-Fc K28R, N45D, V129D, T163N, R195T (Fc fusion, not shown: a dimerising Fc or GST) FTVTVPKDLYVVEYGSNMTIECKFPVERQLDLAALIVYWEMEDKDIIQFVHGEEDLKVQHSSYRQRARLLKDQLSLGNAALQITDVKLQDAGVYRCMISYGGADYKRITVKVNAPYNKINQRILVVDPDTSEHELTCQAEGYPKAEVIWTSSDHQVLSGKTTNTNSKREEKLFNVTSTLRINTTTNEIFYCTFRTLDPEENHTAELVIPELPLAHPPNER : 137000
variant PD-L1 ECD-Fc N45D, V50A, I148V, R195G, N201D (Fc fusion, not shown: a dimerising Fc or GST) FTVTVPKDLYVVEYGSNMTIECKFPVEKQLDLAALIVYWEMEDKDIIQFAHGEEDLKVQHSSYRQRARLLKDQLSLGNAALQITDVKLQDAGVYRCMISYGGADYKRITVKVNAPYNKINQRILVVDPVTSEHELTCQAEGYPKAEVVWTSSDHQVLSGKTTTTNSKREEKLFNVTSTLRINTTTNEIFYCTFRGLDPEEDHTAELVIPELPLAHPPNER : 131000
variant PD-L1 ECD-Fc N45D, N165Y, E170G (Fc fusion, not shown: a dimerising Fc or GST) FTVTVPKDLYVVEYGSNMTIECKFPVEKQLDLAALIVYWEMEDKDIIQFVHGEEDLKVQHSSYRQRARLLKDQLSLGNAALQITDVKLQDAGVYRCMISYGGADYKRITVKVNAPYNKINQRILVVDPVTSEHELTCQAEGYPKAEVIWTSSDHQVLSGKTTTTYSKREGKLFNVTSTLRINTTTNEIFYCTFRRLDPEENHTAELVIPELPLAHPPNER : 89000
variant PD-L1 ECD-Fc N45D, K111T, R195G (Fc fusion, not shown: a dimerising Fc or GST) FTVTVPKDLYVVEYGSNMTIECKFPVEKQLDLAALIVYWEMEDKDIIQFVHGEEDLKVQHSSYRQRARLLKDQLSLGNAALQITDVKLQDAGVYRCMISYGGADYKRITVTVNAPYNKINQRILVVDPVTSEHELTCQAEGYPKAEVIWTSSDHQVLSGKTTTTNSKREEKLFNVTSTLRINTTTNEIFYCTFRGLDPEENHTAELVIPELPLAHPPNER : 65700

# input Query: MFI at 20 nM conc.; subject: variant PD-L1 ECD-Fc N45D, S75P, P198S (Fc fusion, not shown: a dimerising Fc or GST) FTVTVPKDLYVVEYGSNMTIECKFPVEKQLDLAALIVYWEMEDKDIIQFVHGEEDLKVQHSSYRQRARLLKDQLPLGNAALQITDVKLQDAGVYRCMISYGGADYKRITVKVNAPYNKINQRILVVDPVTSEHELTCQAEGYPKAEVIWTSSDHQVLSGKTTTTNSKREEKLFNVTSTLRINTTTNEIFYCTFRRLDSEENHTAELVIPELPLAHPPNER
# output 130000

Values from patent US20260062456A1
